Would you mind telling me the reported pKd of each entry?
target: ActRIIB-G1Fc; assay: SPR; 25 C
Scale: negative log10 of molar concentration, which is what pKd denotes.

Quick one: pKd of Activin A (ligand) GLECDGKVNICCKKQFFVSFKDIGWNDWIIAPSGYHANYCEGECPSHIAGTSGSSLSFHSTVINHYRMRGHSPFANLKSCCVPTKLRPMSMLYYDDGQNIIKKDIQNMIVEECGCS ?
9.60

Entry GDF11 (ligand) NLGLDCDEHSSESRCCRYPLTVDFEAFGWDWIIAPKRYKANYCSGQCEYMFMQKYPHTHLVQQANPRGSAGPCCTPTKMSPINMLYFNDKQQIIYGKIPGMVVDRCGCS : reported pKd = ?
10.96

GET /values?readout=pKd&item= BMP10 (ligand) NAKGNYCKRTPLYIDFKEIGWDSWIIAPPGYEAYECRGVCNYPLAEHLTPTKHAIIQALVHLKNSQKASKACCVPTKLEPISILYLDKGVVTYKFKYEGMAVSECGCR
9.77

Which pKd is listed for BMP9 (ligand) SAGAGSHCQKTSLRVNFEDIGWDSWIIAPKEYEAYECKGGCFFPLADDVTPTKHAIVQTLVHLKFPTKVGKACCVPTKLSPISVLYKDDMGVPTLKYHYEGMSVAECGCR ?
10.23
